The entries below are paired with their reported extent of the injury of the plants, autumn wheat.
Tested on: autumn wheat
procedureText: Herbicide activity test in green house
Assay type: in vivo
measurementParameters: dose 5.0 kg/ha, sprayed at 2-4 leaves, evaluated on 14th day
Procedure: In culture dishes white mustard, pig weed, fat hen, autumn wheat, Italian grass and corn seeds were sown. When the seeds were sprouted 10% EC and 10% WSC were prepared from the compounds to be tested, and after dilution with water 0.2% spray was prepared. […] On the 14th day after the treatment the extent of the injury of the plants was evaluated and expressed in %.
experimentalEndpoint: extent of the injury of the plants, autumn wheat (%)

1) CNC.O=[N+]([O-])c1cc([N+](=O)[O-])c(O)c(C(F)(F)F)c1 = 10
2) CC(=O)Oc1c([N+](=O)[O-])cc([N+](=O)[O-])cc1C(F)(F)F = 10
3) O=[N+]([O-])c1cc([N+](=O)[O-])c(O)c(C(F)(F)F)c1 [2-trifluoromethyl-4,6-dinitro-phenol, 2-Trifluoromethyl-4,6-dinitro-phenol] = 10
4) O=[N+]([O-])c1cc([N+](=O)[O-])c(O)c(C(F)(F)F)c1 [2-trifluoromethyl-4,6-dinitro-phenol-diethanol-amine] = 10
5) O=[N+]([O-])c1cc([N+](=O)[O-])c(O)c(C(F)(F)F)c1 [2-trifluoromethyl-4,6-dinitro-phenol-Na] = 15
6) O=[N+]([O-])c1cc([N+](=O)[O-])c(O)c(C(F)(F)F)c1 [2-trifluoromethyl-4,6-dinitro-phenol-K] = 15
7) CCC(=O)Oc1c([N+](=O)[O-])cc([N+](=O)[O-])cc1C(F)(F)F = 10

---

System: Italian grass
procedureText: Herbicide activity test in green house
Assay type: in vivo
measurementParameters: dose 5.0 kg/ha, sprayed at 2-4 leaves, evaluated on 14th day
The entries below are paired with their reported extent of the injury of the plants, Italian grass.
experimentalEndpoint: extent of the injury of the plants, Italian grass (%)

1. CNC.O=[N+]([O-])c1cc([N+](=O)[O-])c(O)c(C(F)(F)F)c1 = 20
2. O=[N+]([O-])c1cc([N+](=O)[O-])c(O)c(C(F)(F)F)c1 [2-trifluoromethyl-4,6-dinitro-phenol-K] = 15
3. O=[N+]([O-])c1cc([N+](=O)[O-])c(O)c(C(F)(F)F)c1 [2-trifluoromethyl-4,6-dinitro-phenol-diethanol-amine] = 10
4. CC(=O)Oc1c([N+](=O)[O-])cc([N+](=O)[O-])cc1C(F)(F)F = 20

---

Tested on: fat hen
procedureText: Herbicide activity test in green house
Assay type: in vivo
measurementParameters: dose 1.25 kg/ha, sprayed at 2-4 leaves, evaluated on 14th day
experimentalEndpoint: extent of the injury of the plants, fat hen (%)

1) CCC(=O)Oc1c([N+](=O)[O-])cc([N+](=O)[O-])cc1C(F)(F)F = 60
2) O=[N+]([O-])c1cc([N+](=O)[O-])c(O)c(C(F)(F)F)c1 [2-trifluoromethyl-4,6-dinitro-phenol-Na] = 70
3) O=[N+]([O-])c1cc([N+](=O)[O-])c(O)c(C(F)(F)F)c1 [2-trifluoromethyl-4,6-dinitro-phenol, 2-Trifluoromethyl-4,6-dinitro-phenol] = 75
4) CC(=O)Oc1c([N+](=O)[O-])cc([N+](=O)[O-])cc1C(F)(F)F = 70
5) O=[N+]([O-])c1cc([N+](=O)[O-])c(O)c(C(F)(F)F)c1 [2-trifluoromethyl-4,6-dinitro-phenol-K] = 70
6) CNC.O=[N+]([O-])c1cc([N+](=O)[O-])c(O)c(C(F)(F)F)c1 = 70
7) O=[N+]([O-])c1cc([N+](=O)[O-])c(O)c(C(F)(F)F)c1 [2-trifluoromethyl-4,6-dinitro-phenol-diethanol-amine] = 70

---

The entries below are paired with their reported extent of the injury of the plants, Italian grass.
Tested on: Italian grass
procedureText: Herbicide activity test in green house
Type: in vivo
measurementParameters: dose 5.0 kg/ha, sprayed at 2-4 leaves, evaluated on 14th day
experimentalEndpoint: extent of the injury of the plants, Italian grass

1) CCC(=O)Oc1c([N+](=O)[O-])cc([N+](=O)[O-])cc1C(F)(F)F = 10%
2) O=[N+]([O-])c1cc([N+](=O)[O-])c(O)c(C(F)(F)F)c1 [2-trifluoromethyl-4,6-dinitro-phenol, 2-Trifluoromethyl-4,6-dinitro-phenol] = 30%
3) O=[N+]([O-])c1cc([N+](=O)[O-])c(O)c(C(F)(F)F)c1 [2-trifluoromethyl-4,6-dinitro-phenol-Na] = 15%

---

Test system: pig weed
procedureText: Herbicide activity test in green house
Format: in vivo
measurementParameters: dose 1.25 kg/ha, sprayed at 2-4 leaves, evaluated on 14th day
experimentalEndpoint: extent of the injury of the plants, pig weed

1) O=[N+]([O-])c1cc([N+](=O)[O-])c(O)c(C(F)(F)F)c1 [2-trifluoromethyl-4,6-dinitro-phenol-Na] = 60%
2) CNC.O=[N+]([O-])c1cc([N+](=O)[O-])c(O)c(C(F)(F)F)c1 = 50%
3) O=[N+]([O-])c1cc([N+](=O)[O-])c(O)c(C(F)(F)F)c1 [2-trifluoromethyl-4,6-dinitro-phenol, 2-Trifluoromethyl-4,6-dinitro-phenol] = 50%
4) CC(=O)Oc1c([N+](=O)[O-])cc([N+](=O)[O-])cc1C(F)(F)F = 50%
5) CCC(=O)Oc1c([N+](=O)[O-])cc([N+](=O)[O-])cc1C(F)(F)F = 40%
6) O=[N+]([O-])c1cc([N+](=O)[O-])c(O)c(C(F)(F)F)c1 [2-trifluoromethyl-4,6-dinitro-phenol-diethanol-amine] = 50%
7) O=[N+]([O-])c1cc([N+](=O)[O-])c(O)c(C(F)(F)F)c1 [2-trifluoromethyl-4,6-dinitro-phenol-K] = 45%

---

Tested on: fat hen
procedureText: Herbicide activity test in green house
Type: in vivo
measurementParameters: dose 5.0 kg/ha, sprayed at 2-4 leaves, evaluated on 14th day
experimentalEndpoint: extent of the injury of the plants, fat hen (%)

1. O=[N+]([O-])c1cc([N+](=O)[O-])c(O)c(C(F)(F)F)c1 [2-trifluoromethyl-4,6-dinitro-phenol, 2-Trifluoromethyl-4,6-dinitro-phenol] = 100
2. CC(=O)Oc1c([N+](=O)[O-])cc([N+](=O)[O-])cc1C(F)(F)F = 100
3. O=[N+]([O-])c1cc([N+](=O)[O-])c(O)c(C(F)(F)F)c1 [2-trifluoromethyl-4,6-dinitro-phenol-K] = 100
4. CNC.O=[N+]([O-])c1cc([N+](=O)[O-])c(O)c(C(F)(F)F)c1 = 85
5. O=[N+]([O-])c1cc([N+](=O)[O-])c(O)c(C(F)(F)F)c1 [2-trifluoromethyl-4,6-dinitro-phenol-diethanol-amine] = 80
6. CCC(=O)Oc1c([N+](=O)[O-])cc([N+](=O)[O-])cc1C(F)(F)F = 80
7. O=[N+]([O-])c1cc([N+](=O)[O-])c(O)c(C(F)(F)F)c1 [2-trifluoromethyl-4,6-dinitro-phenol-Na] = 100
